# Target under test: CDK2/CycE (Homo sapiens (Human), UniProt P24941)
# Method: CDK2/CycE kinase assay (Caliper microfluidic)
# Reported conditions: at Km for ATP
pIC50: −log10 of the molar value.
Result type: pIC50

Task: Please look at this molecule and report its pIC50: C[C@H]1CNC(=O)N1c1ccnc(Nc2ccc(N3CCN(C)CC3)cn2)n1
Output: 4.24

Task: Please look at this molecule and report its pIC50: CN1CCN(c2ccc(Nc3nccc(N4C(=O)NCC45CCCCC5)n3)nc2)CC1
Output: < 4.00

Task: Please look at this molecule and report its pIC50: CC(C)[C@H]1CNC(=O)N1c1ccnc(Nc2ccc(N3CCN(C)CC3)cn2)n1
Output: 4.64

Task: Please look at this molecule and report its pIC50: CN1CCN(c2ccc(Nc3nccc(N4CC(=O)NCC45CCCCC5)n3)nc2)CC1
Output: < 4.00

Task: Please look at this molecule and report its pIC50: CN1CCN(c2ccc(Nc3nccc(N4C(c5ccsc5)=NCC45CCCCC5)n3)nc2)CC1
Output: < 4.00

Task: Please look at this molecule and report its pIC50: CN1CCN(c2ccc(Nc3nccc(N4C(c5ccoc5)=NCC45CCCCC5)n3)nc2)CC1
Output: < 4.00

Task: Please look at this molecule and report its pIC50: CN1CCN(c2ccc(Nc3nccc(N4C(=O)N(C)CC45CCCCC5)n3)nc2)CC1
Output: < 4.00

Task: Please look at this molecule and report its pIC50: CN1CCN(c2ccc(Nc3nccc(N4C(=O)N(Cc5ccccc5)CC45CCCCC5)n3)nc2)CC1
Output: < 4.00
